All values here come from patent US20250002507A1.

ASSAYED TARGET: Human M4 (Homo sapiens, UniProt P08173)
Construct: expressed in transfected cells
PROCEDURE SUMMARY: mAChR M4 cell-based functional assay (calcium flux, potentiation of EC20 acetylcholine response), hM4-Gqi5 CHO-K1 cells
MEASUREMENT CONTEXT: CHO-K1; Table 3; Human M4; % ACh maximum at 30 μM; read-out: Emax (% ACh maximum at 30 μM)
Provide the recorded Emax at 30 µM for the entries that follow.
Answers are plain numbers, in %.

Worked examples follow.
{"MOLECULE": "Cc1c(N2CCc3ncc(-c4ccc(-n5ccnc5)nc4)cc3C2)nn2cnnc2c1C", "READING UNIT": "%", "Emax at 30 µM": 72}
{"MOLECULE": "Cc1c(N2CCc3ncc(-c4ccc(N5CCCC(F)C5)nc4)cc3C2)nn2cnnc2c1C (centres unmarked)", "READING UNIT": "%", "Emax at 30 µM": 82}
{"MOLECULE": "Cc1cc2nncn2nc1N1CCc2ncc(Nc3ccnn3C)cc2C1", "READING UNIT": "%", "Emax at 30 µM": 102}
{"MOLECULE": "Cc1c(N2CCc3ncc(-c4cnn(Cc5ccccc5)c4)cc3C2)nn2c(C(F)(F)F)nnc2c1C", "READING UNIT": "%", "Emax at 30 µM": 55}
{"MOLECULE": "Cc1cc2nncn2nc1N1CCc2ncc(Oc3ccc(F)cc3F)cc2C1", "READING UNIT": "%", "Emax at 30 µM": 96}

Quick request: Emax at 30 µM for each listed item, please.
1. Cc1c(N2CCc3ncc(Oc4ccccc4F)cc3C2)nn2c(C(F)(F)F)nnc2c1C
2. Cc1c(N2CCc3ncc(-c4cccnc4OC(C)C)cc3C2)nn2cnnc2c1C
3. Cc1c(N2CCc3ncc(-c4ccc(N(C)C)nc4)cc3C2)nn2cnnc2c1C
4. Cc1c(N2CCc3ncc(Nc4ccnn4C)cc3C2)nn2c(C(F)(F)F)nnc2c1C
5. Cc1c(N2CCc3ncc(C(C)C)cc3C2)nn2cnnc2c1C
6. Cc1cc(C)n(-c2cnc3c(c2)CN(c2nn4c(C(F)(F)F)nnc4c(C)c2C)CC3)n1
7. CCCCn1nc(C)cc1Nc1cnc2c(c1)CN(c1nn3cnnc3c(C)c1C)CC2
8. Cc1c(N2CCc3ncc(-c4ccc(N5CC[C@H](F)C5)nc4)cc3C2)nn2c(C(F)(F)F)nnc2c1C

Solution:
85
42
74
94
89
77
52
60

Quick request: Emax at 30 µM for each listed item, please.
1. Cc1c(N2CCc3ncc(OCC4COCCO4)cc3C2)nn2cnnc2c1C (centres unmarked)
2. Cc1c(N2CCc3ncc(N4CCOCC4)cc3C2)nn2c(C(F)(F)F)nnc2c1C
3. Cc1c(N2CCc3ncc(C(F)F)cc3C2)nn2cnnc2c1C
4. Cc1c(N2CCc3ncc(-c4ccc(-n5cccn5)nc4)cc3C2)nn2cnnc2c1C
5. Cc1cc2nnc(C(F)(F)F)n2nc1N1CCc2ncc(Oc3ccc(F)cc3F)cc2C1

Solution:
84
89
103
66
96

Quick request: Emax at 30 µM for each listed item, please.
1. Cc1cc2nncn2nc1N1CCc2ncc(Nc3nn(C)c4ccccc34)cc2C1
2. Cc1c(N2CCc3ncc(NC(=O)C(C)C)cc3C2)nn2cnnc2c1C

Solution:
[62, 79]

* * *

Provide the recorded Emax at 30 µM for the entries that follow.
ASSAYED TARGET: Human M4 (Homo sapiens, UniProt P08173)
Construct: expressed in transfected cells
Sequence (P08173 1-479): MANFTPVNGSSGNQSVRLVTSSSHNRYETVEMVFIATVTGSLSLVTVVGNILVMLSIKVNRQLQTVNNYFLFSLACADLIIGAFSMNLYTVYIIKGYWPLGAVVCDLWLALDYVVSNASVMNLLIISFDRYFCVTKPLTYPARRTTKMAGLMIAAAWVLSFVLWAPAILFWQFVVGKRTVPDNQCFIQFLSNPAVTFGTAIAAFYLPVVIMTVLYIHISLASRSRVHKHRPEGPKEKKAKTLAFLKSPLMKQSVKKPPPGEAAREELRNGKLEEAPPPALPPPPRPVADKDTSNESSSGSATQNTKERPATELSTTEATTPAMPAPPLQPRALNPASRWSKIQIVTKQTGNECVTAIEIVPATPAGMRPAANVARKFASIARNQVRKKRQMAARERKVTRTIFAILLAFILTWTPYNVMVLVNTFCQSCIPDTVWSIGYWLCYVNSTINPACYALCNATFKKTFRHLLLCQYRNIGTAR
PROCEDURE SUMMARY: mAChR M4 cell-based functional assay (calcium flux, potentiation of EC20 acetylcholine response), hM4-Gqi5 CHO-K1 cells
MEASUREMENT CONTEXT: CHO-K1; Table 3; Human M4; % ACh maximum at 30 μM; read-out: Emax (% ACh maximum at 30 μM)
Numbers only, in %.

Worked examples follow.
{"COMPOUND": "Cc1c(N2Cc3cc(C(F)(F)F)cnc3C(C)(C)C2)nn2cnnc2c1C [Compound 269]", "ASSAYED TARGET": "Human M4 (Homo sapiens, UniProt P08173)", "READING UNIT": "%", "Emax at 30 µM": 42}
{"COMPOUND": "Cc1c(N2CCc3ncc(-c4ccc(N5CCC(F)(F)CC5)nc4)cc3C2)nn2cnnc2c1C [Compound 215]", "ASSAYED TARGET": "Human M4 (Homo sapiens, UniProt P08173)", "READING UNIT": "%", "Emax at 30 µM": 86}
{"COMPOUND": "Cc1ccc(Oc2cnc3c(c2)CN(c2nn4c(C(F)(F)F)nnc4c(C)c2C)CC3)c(F)c1 [Compound 291]", "ASSAYED TARGET": "Human M4 (Homo sapiens, UniProt P08173)", "READING UNIT": "%", "Emax at 30 µM": 67}

We next turn to a different compound, shown below.
The compound listed as Cc1c(N2CCc3ncc(-c4cnc(Cl)c(F)c4)cc3C2)nn2cnnc2c1C [Compound 177] shows Emax at 30 µM equal to 85

* * *

ASSAYED TARGET: Human M4 (Homo sapiens, UniProt P08173)
Construct: expressed in transfected cells
PROCEDURE SUMMARY: mAChR M4 cell-based functional assay (calcium flux, potentiation of EC20 acetylcholine response), hM4-Gqi5 CHO-K1 cells
MEASUREMENT CONTEXT: Table 3; potentiation of EC20 acetylcholine response, calcium flux, CHO-K1 cells; read-out: Human M4 EC50
// classify: if (EC50 < 900 nM) T else F

{"COMPOUND": "Cc1cc2nncn2nc1N1CCc2ncc(-c3ccc(C(F)(F)F)nc3)cc2C1 [Compound 196]", "ASSAYED TARGET": "Human M4 (Homo sapiens, UniProt P08173)", "LABEL VALUE": "T"}
{"COMPOUND": "Cc1ccc(Oc2cnc3c(c2)CN(c2nn4c(C(F)(F)F)nnc4c(C)c2C)CC3)c(F)c1 [Compound 291]", "ASSAYED TARGET": "Human M4 (Homo sapiens, UniProt P08173)", "LABEL VALUE": "F"}
{"COMPOUND": "Cc1cc2nncn2nc1N1CCc2ncc(Nc3nsc4ncccc34)cc2C1 [Compound 203]", "ASSAYED TARGET": "Human M4 (Homo sapiens, UniProt P08173)", "LABEL VALUE": "T"}
{"COMPOUND": "Cc1c(N2CCc3ncc(N4CCCCC4)cc3C2)nn2c(C(F)(F)F)nnc2c1C [Compound 281]", "ASSAYED TARGET": "Human M4 (Homo sapiens, UniProt P08173)", "LABEL VALUE": "T"}
{"COMPOUND": "Cc1ccc(Oc2cnc3c(c2)CN(c2nn4cnnc4c(C)c2C)CC3)c(F)c1 [Compound 289]", "ASSAYED TARGET": "Human M4 (Homo sapiens, UniProt P08173)", "LABEL VALUE": "T"}
{"COMPOUND": "Cc1cc2nnc(C(F)(F)F)n2nc1N1CCc2ncc(Oc3cccc(F)c3F)cc2C1 [Compound 297]", "ASSAYED TARGET": "Human M4 (Homo sapiens, UniProt P08173)", "LABEL VALUE": "F"}
{"COMPOUND": "Cc1c(N2CCc3ncc(N4CCOC(C)(C)C4)cc3C2)nn2c(C(F)(F)F)nnc2c1C [Compound 286]", "ASSAYED TARGET": "Human M4 (Homo sapiens, UniProt P08173)", "LABEL VALUE": "T"}
{"COMPOUND": "Cc1ccc(Oc2cnc3c(c2)CN(c2nn4c(C(F)(F)F)nnc4cc2C)CC3)c(F)c1 [Compound 290]", "ASSAYED TARGET": "Human M4 (Homo sapiens, UniProt P08173)", "LABEL VALUE": "F"}

Problem: Does the reported EC50 of Cc1c(N2CCc3ncc(-c4ccc(N5CCCCC5)nc4)cc3C2)nn2cnnc2c1C [Compound 185] stay below 900 nM?
Solution: T

Problem: Does the reported EC50 of Cc1c(N2CCc3ncc(-n4nccc4C)cc3C2)nn2c(C(F)(F)F)nnc2c1C [Compound 242] stay below 900 nM?
Solution: T

Problem: Does the reported EC50 of Cc1c(N2CCc3ncc(N4CCCn5nccc54)cc3C2)nn2c(Cl)nnc2c1C [Compound 284] stay below 900 nM?
Solution: T
